Each record here notes measured viability at 10 µM.
Tested on: expanded OPCs
Assay: cells
Settings: Rattus norvegicus, 72 h, read-out: 10 µM (% DMSO), alamarBlue viability of expanded OPCs, compound at 10 µM, sheet All Tox data
endpointName: viability at 10 µM (%)

INSERT INTO measurements (compound, testsystem, endpointname, unitlabel, reportedresult) VALUES
  ('CC(C)(C)NC(=O)[C@@H]1CN(Cc2cccnc2)CCN1C[C@@H](O)C[C@@H](Cc1ccccc1)C(=O)N[C@H]1c2ccccc2C[C@H]1O [Indinavir]', 'expanded OPCs', 'viability at 10 µM', '%', 92.2),
  ('CC[C@@H]1C(=O)OC[C@@H]1Cc1cncn1C [Pilocarpine]', 'expanded OPCs', 'viability at 10 µM', '%', 90.1),
  ('C[C@]12CC[C@H]3[C@@H](CCC4=CC(=O)CC[C@@H]43)[C@@H]1CC[C@@H]2O [Nandrolone]', 'expanded OPCs', 'viability at 10 µM', '%', 96.2),
  ('O=C(O)c1cc(/N=N/c2ccc(S(=O)(=O)Nc3ccccn3)cc2)ccc1O [Sulfasalazine]', 'expanded OPCs', 'viability at 10 µM', '%', 94.9),
  ('Cn1c(NCCN(CCO)CCCc2ccc([N+](=O)[O-])cc2)cc(=O)n(C)c1=O [Nifekalant]', 'expanded OPCs', 'viability at 10 µM', '%', 109),
  ('C=CCc1ccc(O)c(-c2ccc(O)c(CC=C)c2)c1 [Honokiol]', 'expanded OPCs', 'viability at 10 µM', '%', 11.4),
  ('C=C1/C(=C\C=C2/CCC[C@]3(C)[C@@H]([C@H](C)/C=C/[C@@H](O)C4CC4)CC[C@@H]23)C[C@@H](O)C[C@@H]1O [Calcipotriene]', 'expanded OPCs', 'viability at 10 µM', '%', 11.5),
  ('CCCc1c(OCCCCc2nnn[nH]2)ccc(C(C)=O)c1O [LY 171883]', 'expanded OPCs', 'viability at 10 µM', '%', 86.1),
  ('CCC(C)n1ncn(-c2ccc(N3CCN(c4ccc(OCC5COC(Cn6cncn6)(c6ccc(Cl)cc6Cl)O5)cc4)CC3)cc2)c1=O (stereo not shown) [Itraconazole]', 'expanded OPCs', 'viability at 10 µM', '%', 26.2),
  ('N=C(N)NC(=O)c1nc(Cl)c(N)nc1N [Amiloride]', 'expanded OPCs', 'viability at 10 µM', '%', 90.8),
  ('Nc1ncnc2c1ncn2[C@@H]1O[C@H](CO)C[C@H]1O [Cordycepin]', 'expanded OPCs', 'viability at 10 µM', '%', 16),
  ('CCN(CC)CC(=O)Nc1c(C)cccc1C [Lidocaine]', 'expanded OPCs', 'viability at 10 µM', '%', 85.5),
  ('CC(=O)NCCCCCCNC(C)=O [Hexamethylene bisacetamide]', 'expanded OPCs', 'viability at 10 µM', '%', 87.3),
  ('C[C@@H]1C[C@H]2[C@@H]3C[C@H](F)C4=CC(=O)C=C[C@]4(C)[C@@]3(F)[C@@H](O)C[C@]2(C)[C@@]1(O)C(=O)SCF [Fluticasone]', 'expanded OPCs', 'viability at 10 µM', '%', 112),
  ('CCOC(=O)[C@H](CCc1ccccc1)N[C@H]1CCc2ccccc2N(CC(=O)O)C1=O [Benazepril]', 'expanded OPCs', 'viability at 10 µM', '%', 93.6),
  ('CC[C@H]1OC(=O)[C@H](C)[C@@H](O[C@H]2C[C@@](C)(OC)[C@@H](O)[C@H](C)O2)[C@H](C)[C@@H](O[C@@H]2O[C@H](C)C[C@H](N(C)C)[C@H]2O)[C@](C)(O)C[C@@H](C)C(=O)[C@H](C)[C@@H](O)[C@]1(C)O [Erythromycin]', 'expanded OPCs', 'viability at 10 µM', '%', 59.1),
  ('CN1[C@@H]2CC[C@H]1C[C@@H](OC(=O)c1c[nH]c3ccccc13)C2 [Tropisetron]', 'expanded OPCs', 'viability at 10 µM', '%', 82.5),
  ('COc1cc(CNC(=O)CCCC/C=C\C(C)C)ccc1O [Zucapsaicin]', 'expanded OPCs', 'viability at 10 µM', '%', 36.9),
  ('O=C(O)/C=C/c1ccc(Cn2ccnc2)cc1 [Ozagrel]', 'expanded OPCs', 'viability at 10 µM', '%', 92.2),
  ('Cc1cccc(Nc2ccncc2S(=O)(=O)NC(=O)NC(C)C)c1 [Torsemide]', 'expanded OPCs', 'viability at 10 µM', '%', 93.4),
  ('CCc1ccc(CCOc2ccc(CC3SC(=O)NC3=O)cc2)nc1 (stereo not shown) [Pioglitazone]', 'expanded OPCs', 'viability at 10 µM', '%', 164),
  ('O=C(NCCN1CCOCC1)c1ccc(Cl)cc1 [Moclobemide]', 'expanded OPCs', 'viability at 10 µM', '%', 113);
